tested on: plasma protein; assay: Determination of plasma protein binding (equilibrium dialysis, RED); format: in vitro ADME; conditions: 4 hours at 37° C.
Reported Exposure (% rPPB), bound drug fraction to plasma protein values for a set of molecules
Reply numerically in %, unit not repeated.

Example molecules with recorded Exposure (% rPPB), bound drug fraction to plasma protein:
molecule="Cc1nsc(-c2nnc3n2CCN(C(=O)c2ccc(Cl)c(Cl)c2)[C@@H]3C)n1 [Compound 1]" value_reported=67
molecule="CC[C@@H]1c2nnc(-c3nc(C)ns3)n2CCN1C(=O)c1ccc(F)cc1 [Compound 22]" value_reported=27
molecule="CC(F)c1noc(-c2nnc3n2CCN(C(=O)c2ccc(F)cc2)[C@@H]3C)n1 (single isomer, unassigned) [Compound 45-1]" value_reported=27
molecule="Cc1nsc(-c2nnc3n2CCN(C(=O)c2ccc(Cl)c(F)c2)C3C)n1 (racemic) [Compound 36]" value_reported=60
molecule="Cc1nsc(-c2nnc3n2CCN(C(=O)c2cc(F)c(F)c(F)c2F)C3C)n1 (racemic) [Compound 31]" value_reported=31
molecule="CC(F)c1noc(-c2nnc3n2CCN(C(=O)c2ccc(F)cc2)[C@@H]3C)n1 (single isomer, unassigned) [Compound 45-2]" value_reported=33
molecule="Cc1nsc(-c2nnc3n2CCN(C(=O)c2ccc(F)cc2F)[C@@H]3C)n1 [Compound 18]" value_reported=23

Could you now consider this next molecule?
Ask | Specify Exposure (% rPPB), bound drug fraction to plasma protein for Cc1noc(-c2nnc3n2CCN(C(=O)c2ccc(F)cc2)[C@@H]3C)n1 [Compound 28] , system plasma protein.
Reply | 12

* * *

Reported pKi values for a set of molecules
biological target: human NK-3 receptor (Homo sapiens (Human)); experiment: 3H-SB222200 binding competition assay with human NK-3 receptor; settings: Table 3 (selectivity table); read-out: hNK-3 (Ki)
# log scale: pKi equals minus log10 of the concentration in mol/L

Example molecules with recorded pKi:
molecule=CCc1noc(-c2nnc3n2CCN(C(=O)c2ccc(-c4cccs4)cc2)[C@@H]3C)n1 property=pKi value_reported=8.15
molecule=C[C@@H]1c2nnc(-c3nc(C(F)F)ns3)n2CCN1C(=O)c1ccc(F)cc1 property=pKi value_reported=7.32
molecule=Cc1nsc(-c2nnc3n2CCN(C(=O)c2ccc(Cl)c(F)c2)[C@@H]3C)n1 property=pKi value_reported=7.70
molecule=Cc1nsc(-c2nnc3n2CCN(C(=O)c2cccc(Cl)c2)[C@@H]3C)n1 property=pKi value_reported=7.31
molecule=CCC[C@@H]1c2nnc(-c3nc(C)ns3)n2CCN1C(=O)c1ccc(F)cc1 property=pKi value_reported=7.11

Ask | Specify pKi for "Cc1nsc(-c2nnc3n2CCN(C(=O)c2ccc(F)c(F)c2)[C@@H]3C)n1" , system human NK-3 receptor (Homo sapiens (Human)).
Reply | 7.52

Ask | Specify pKi for "Cc1noc(-c2nnc3n2CCN(C(=O)c2ccc(F)cc2)[C@@H]3C)n1" , system human NK-3 receptor (Homo sapiens (Human)).
Reply | 6.96

Ask | Specify pKi for "CCc1nsc(-c2nnc3n2CCN(C(=O)c2ccc(F)cc2)[C@@H]3C)n1" , system human NK-3 receptor (Homo sapiens (Human)).
Reply | 7.82

Ask | Specify pKi for CCc1noc(-c2nnc3n2CCN(C(=O)c2ccc(F)cc2)C3C)n1 (racemic) , system human NK-3 receptor (Homo sapiens (Human)).
Reply | 7.08

Ask | Specify pKi for Cc1nsc(-c2nnc3n2CCN(C(=O)c2cc(F)c(F)c(F)c2F)C3C)n1 (racemic) , system human NK-3 receptor (Homo sapiens (Human)).
Reply | 7.15

Ask | Specify pKi for "Cc1nsc(-c2nnc3n2CCN(C(=O)c2cccc(F)c2)[C@@H]3C)n1" , system human NK-3 receptor (Homo sapiens (Human)).
Reply | 7.35

* * *

test system: plasma protein; experiment: Determination of plasma protein binding (equilibrium dialysis, RED); format: in vitro ADME; settings: 4 hours at 37° C.
property: Exposure (% rPPB), bound drug fraction to plasma protein

Example molecules with recorded Exposure (% rPPB), bound drug fraction to plasma protein:
molecule=Cc1nsc(-c2nnc3n2CCN(C(=O)c2cccc(F)c2)[C@@H]3C)n1 value_reported=20%
molecule="CCc1nsc(-c2nnc3n2CCN(C(=O)c2ccc(F)cc2)C3C)n1 (racemic)" value_reported=43%
molecule=Cc1nsc(-c2nnc3n2CCN(C(=O)c2ccc(F)cc2)[C@@H]3C)n1 value_reported=22%

Could you now consider this next molecule?
Ask | Give reported Exposure (% rPPB), bound drug fraction to plasma protein value for Cc1nsc(-c2nnc3n2CCN(C(=O)c2cc(F)c(F)c(F)c2)C3C)n1 (racemic)
Reply | 24%

* * *

target: human NK-3 receptor (Homo sapiens (Human), UniProt P29371); experiment: Aequorin functional assay with human NK-3 receptor (antagonist testing vs NKA); conditions: CHO cells, NKA at EC80 (3 nM); read-out: Functional assay: Aequorin assay with human NK-3 receptor hNK-3-AEQ (antagonist IC50)
Sequence (P29371 whole entry): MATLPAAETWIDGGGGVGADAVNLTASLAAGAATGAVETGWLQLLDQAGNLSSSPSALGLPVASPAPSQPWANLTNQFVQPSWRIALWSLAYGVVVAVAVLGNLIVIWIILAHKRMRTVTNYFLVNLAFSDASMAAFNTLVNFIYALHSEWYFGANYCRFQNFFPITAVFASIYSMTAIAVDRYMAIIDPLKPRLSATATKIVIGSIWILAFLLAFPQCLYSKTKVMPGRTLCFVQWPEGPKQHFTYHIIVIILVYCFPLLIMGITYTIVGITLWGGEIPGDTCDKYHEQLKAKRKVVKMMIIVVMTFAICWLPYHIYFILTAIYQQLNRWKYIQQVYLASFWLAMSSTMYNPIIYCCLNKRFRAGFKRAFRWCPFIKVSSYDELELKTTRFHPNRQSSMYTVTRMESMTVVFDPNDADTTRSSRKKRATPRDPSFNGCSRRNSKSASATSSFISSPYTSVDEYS
property: pIC50
# log scale: pIC50 equals minus log10 of the concentration in mol/L

molecule=CC[C@@H]1c2nnc(-c3nc(C)ns3)n2CCN1C(=O)c1ccc(F)cc1 property=pIC50 value_reported=6.89
molecule="Cc1nsc(-c2nnc3n2CCN(C(=O)c2cc(F)c(F)c(F)c2)C3C)n1 (racemic)" property=pIC50 value_reported=7.21
molecule=C[C@@H]1c2nnc(-c3nc(C(C)(F)F)no3)n2CCN1C(=O)c1ccc(F)cc1 property=pIC50 value_reported=6.87

Ask | Specify pIC50 for Cc1nsc(-c2nnc3n2CCN(C(=O)c2ccc(Cl)c(F)c2)C3C)n1 (racemic) , system human NK-3 receptor (Homo sapiens (Human), UniProt P29371).
Reply | 7.24

Ask | Specify pIC50 for "Cc1nsc(-c2nnc3n2CCN(C(=O)c2ccc(F)cc2F)[C@@H]3C)n1" , system human NK-3 receptor (Homo sapiens (Human), UniProt P29371).
Reply | 7.06

Ask | Specify pIC50 for "Cc1nsc(-c2nnc3n2CCN(C(=O)c2cc(F)c(F)c(F)c2)[C@@H]3C)n1" , system human NK-3 receptor (Homo sapiens (Human), UniProt P29371).
Reply | 7.52

Ask | Specify pIC50 for "C[C@@H]1c2nnc(-c3nc(C(F)F)ns3)n2CCN1C(=O)c1ccc(F)cc1" , system human NK-3 receptor (Homo sapiens (Human), UniProt P29371).
Reply | 7.41

Ask | Specify pIC50 for "Cc1nsc(-c2nnc3n2CCN(C(=O)c2cccc(Cl)c2)[C@@H]3C)n1" , system human NK-3 receptor (Homo sapiens (Human), UniProt P29371).
Reply | 7.15

* * *

biological target: human NK-3 receptor (Homo sapiens (Human), UniProt P29371); test: 3H-SB222200 binding competition assay with human NK-3 receptor; settings: Table 3 (selectivity table); read-out: hNK-3 (Ki)
Reported pKi values for a set of compounds
# log scale: pKi equals minus log10 of the concentration in mol/L

Ask | Specify pKi for "Cc1nsc(-c2nnc3n2CCN(C(=O)c2ccc(F)cc2)[C@@H]3C)n1" , system human NK-3 receptor (Homo sapiens (Human), UniProt P29371).
Reply | 7.64

Ask | Specify pKi for "Cc1nsc(-c2nnc3n2CCN(C(=O)c2ccc(F)cc2)[C@@H]3CCO)n1" , system human NK-3 receptor (Homo sapiens (Human), UniProt P29371).
Reply | 7.49

Ask | Specify pKi for "Cc1nsc(-c2nnc3n2CCN(C(=O)c2ccc(C#N)cc2)[C@@H]3C)n1" , system human NK-3 receptor (Homo sapiens (Human), UniProt P29371).
Reply | 6.82

Ask | Specify pKi for "C[C@@H]1c2nnc(-c3nc(CC(F)(F)F)no3)n2CCN1C(=O)c1ccc(F)cc1" , system human NK-3 receptor (Homo sapiens (Human), UniProt P29371).
Reply | 7.35

Ask | Specify pKi for Cc1nsc(-c2nnc3n2CCN(C(=O)c2ccc(Cl)c(Cl)c2)C3C)n1 (racemic) , system human NK-3 receptor (Homo sapiens (Human), UniProt P29371).
Reply | 7.59

Ask | Specify pKi for Cc1nsc(-c2nnc3n2CCN(C(=O)c2cc(F)c(F)c(F)c2)C3C)n1 (racemic) , system human NK-3 receptor (Homo sapiens (Human), UniProt P29371).
Reply | 7.42

Ask | Specify pKi for "Cc1nsc(-c2nnc3n2CCN(C(=O)c2ccc(Cl)c(Cl)c2)[C@@H]3C)n1" , system human NK-3 receptor (Homo sapiens (Human), UniProt P29371).
Reply | 7.96

Ask | Specify pKi for CC(F)c1noc(-c2nnc3n2CCN(C(=O)c2ccc(F)cc2)[C@@H]3C)n1 (stereo partly shown) [Compound 45] , system human NK-3 receptor (Homo sapiens (Human), UniProt P29371).
Reply | 7.00

Ask | Specify pKi for "Cc1nsc(-c2nnc3n2CCN(C(=O)c2ccc(C(F)(F)F)cc2)[C@@H]3C)n1" , system human NK-3 receptor (Homo sapiens (Human), UniProt P29371).
Reply | 7.20

Ask | Specify pKi for "Cc1ccc(C(=O)N2CCn3c(-c4nc(C)ns4)nnc3[C@H]2C)cc1" , system human NK-3 receptor (Homo sapiens (Human), UniProt P29371).
Reply | 7.25
